assay details: Cytotoxicity against human LX2 cells assessed as reduction in cell viability measured after 72 hrs by MTT assay
Format: toxicity, cell-based, LX-2
measured metric: IC50 at 72 h

# compound `Brc1ccc(-c2nc3ccc(Br)cn3n2)cc1` ; its IC50 at 72 h = > 300 µM

* * *

assay details: Cmax in Sprague-Dawley rat at 10 mg/kg, po measured up to 24 hrs by LC-MS/MS analysis
Type: ADME, organism-based
Design: time < 24 hrs, dose 10 mg/kg, route po
stated conditions: in vivo
measured metric: Cmax (ng/mL)
Respond with the bare value in ng/mL.

# compound `Brc1ccc(-c2nc3ccc(Br)cn3n2)cc1` ; its Cmax = 685
